# melting point per entry
Number only, in °C; omit the unit.

Some solved entries appear below for comparison.
* Cc1cc(-c2ccc(C(F)(F)F)cc2)cc(-c2cccc(-c3cccc(N)c3)n2)n1 [Example 327] | 167
* CN(C)S(=O)(=O)Nc1cccc(-c2cccc(-c3nc(-c4ccc(C(F)(F)F)cc4)cc(C(F)(F)F)n3)c2)c1 [Example 222] | 113
* Cc1cc(-c2ccc(Cl)cc2)nc(-n2cnc(-c3cccc(S(C)(=O)=O)c3)c2)n1 [Example 210] | 233
* Cc1cc(-c2ccc(C(F)(F)F)cc2)cc(-c2cccc(-c3cccc(S(=O)(=O)NCc4ccc(F)cc4)c3)n2)n1 [Example 433] | 175

In plain terms, Cc1cc(-c2cc(C(F)(F)F)nc(-c3nc(-c4ccc(S(N)(=O)=O)cc4)no3)n2)ccc1C(F)(F)F [Example 128] has a documented melting point of 261

---

Each entry below lists one item and its recorded melting point value.
Enter your answer as a number in °C; do not include the unit.

// below: answered compounds
• Cc1cc(-c2ccc(C(F)(F)F)cc2)cc(-c2ccnc(-c3cccc(S(=O)(=O)NC(C)(C)C)c3)c2)n1 = 189
• CCOc1cc(-c2cc(C(F)(F)F)nc(-n3cnc(-c4ccc(N)nc4)c3)n2)ccc1C(F)(F)F = 266.5

Record Nc1ccc(-c2cccc(-c3cc(-c4ccc(C(F)(F)F)cc4)cc(C(F)(F)F)n3)c2)cn1 . Reported melting point: 166

melting point in this record for COc1cc(-c2cc(C)nc(-c3ccnc(-c4cccc(S(=O)(=O)NC(C)(C)C)c4)c3)c2)ccc1C(F)(F)F : 189

GET /value?item= Cc1cc(-c2ccc(C(F)(F)F)cc2)nc(-c2ccnc(-c3cccc(S(N)(=O)=O)c3)c2)c1 &field=melting point returns 238

---

Quick list: melting point per entry.

Some entries whose results are on file:
• Cc1cc(-c2ccc(C(F)(F)F)cc2)cc(-c2cccc(-c3cccc(S(=O)(=O)N4CCCC4)c3)n2)n1 [Example 369] = 174 °C
• NS(=O)(=O)c1cccc(-c2cn(-c3nc(-c4ccc(C(F)(F)F)cc4)cc(C(F)(F)F)n3)cn2)c1 [Example 160] = 198 °C
• CC(C)c1cc(-c2ccc(C(F)(F)F)cc2)nc(-n2cnc(-c3ccc(N)nc3)c2)n1 [Example 152] = 274.5 °C
• NS(=O)(=O)c1ccc(-c2cn(-c3nc(-c4ccc(C(F)(F)F)cc4)cc(C(F)(F)F)n3)cn2)s1 [Example 163] = 281 °C
• NS(=O)(=O)c1ccc(-c2cc(-c3cc(C(F)(F)F)cc(-c4ccc(C(F)(F)F)cc4)n3)ccn2)s1 [Example 321] = 97 °C (dec.)

Just so you know, measured melting point for Cc1cc(-c2ccc(C(F)(F)F)cc2)nc(-c2ccnc(-c3ccc(N)nc3)c2)n1 [Example 113] came out at 232 °C

# melting point of Cc1cc(-c2ccc(C(F)(F)F)cc2)cc(-c2cccc(-c3cnc(N)nc3)c2)n1 [Example 70] = 215 to 217 °C

Reported melting point ( FC(F)(F)c1cc(-c2ccc(Cl)cc2)nc(-c2nc(-c3cccnc3)no2)n1 [Example 29] ) = 168.5 °C

For Nc1ccc(-c2cncc(-c3cc(-c4ccc(C(F)(F)F)cc4)cc(C4CC4)n3)c2)cn1 [Example 69] the compound record lists melting point as 207 to 209 °C

Entry Cc1cc(-c2ccc(Cl)c(Cl)c2)nc(-c2cccc(-c3ccc(S(N)(=O)=O)s3)c2)n1 [Example 195] — recorded melting point = 238 °C

Quick note, melting point for NS(=O)(=O)c1cccc(-c2cccc(-c3nc(-c4ccc(Cl)c(Cl)c4)cc(C(F)(F)F)n3)c2)c1 [Example 202] landed at 241 °C

Sure, the documented melting point for CC(C)(CO)NS(=O)(=O)c1cccc(-c2cn(-c3cc(C(F)(F)F)cc(-c4ccc(C(F)(F)F)cc4)n3)cn2)c1 [Example 291] is 150 °C (dec.)

// field: melting point; key: Cc1cc(-c2ccc(Cl)c(Cl)c2)nc(-n2cnc(-c3cccc(S(C)(=O)=O)c3)c2)n1 [Example 214] ; value = 213 °C

Memo: Cc1cc(-c2ccc(C(F)(F)F)c(C)c2)nc(-c2cccc(-c3ccc(S(N)(=O)=O)s3)c2)n1 [Example 417] , reported melting point: 242 °C

Item: NS(=O)(=O)c1cccc(-c2noc(-c3nc(-c4ccc(Cl)c(Cl)c4)cc(C(F)(F)F)n3)n2)c1 [Example 99] | melting point: 258 °C

---

Assay Readout: melting point

melting point measured on Cc1cc(-c2ccc(C(F)(F)F)cc2)cc(-c2ccnc(-c3cccc(S(C)(=O)=O)c3)n2)n1 = 208 °C

The compound O=S(=O)(c1cccc(-c2cccc(-c3nc(-c4ccc(C(F)(F)F)cc4)cc(C(F)(F)F)n3)c2)c1)N(CCO)CCO showed melting point equal to 111.5 °C

Briefly, melting point measured for Cc1cc(-c2ccc(Cl)cc2)cc(-c2cncc(-c3ccc(N)nc3)c2)n1 : 188 to 192 °C

What the record says about NS(=O)(=O)c1ccc(-c2cccc(-c3nc(-c4ccc(C(F)(F)F)cc4)cc(C(F)(F)F)n3)c2)s1 : melting point is 204 °C

---

Parameter: melting point. Scope: all listed entries.
Report only the number, with the unit °C understood.

Check out these entries, answers already filled in.
• Cc1cc(-c2ccc(C(F)(F)F)cc2)cc(-c2cccc(-c3ccc(S(N)(=O)=O)s3)c2)n1 = 215
• CNS(=O)(=O)c1cccc(-c2cccc(-c3cc(-c4ccc(C(F)(F)F)cc4)cc(C)n3)n2)c1 = 176
• Cc1cc(-c2ccc(C(F)(F)F)cc2)nc(-n2cnc(-c3cccc(S(N)(=O)=O)c3)c2)n1 = 186

melting point for NS(=O)(=O)c1cccc(-c2cc(-c3nc(-c4ccc(C(F)(F)F)cc4)cc(C(F)F)n3)ccn2)c1 is 233.5

---

Assay Readout: melting point (°C)
Write down the numeric answer in °C and omit the unit.

- Cc1cc(-c2ccc(C(F)(F)F)c(C)c2)nc(-c2ccnc(-c3ccc(N)nc3)c2)n1: 188

Continue with the next compound.
Notebook: Cc1cc(-c2cc(C(F)(F)F)nc(-c3ccnc(-c4ccc(N)nc4)c3)n2)ccc1Cl , melting point read as 207

---

Assay Readout: melting point (°C)
Just the number please, in °C, no unit attached.

- NS(=O)(=O)c1cccc(-c2cc(-c3nc(-c4ccc(Cl)cc4)cc(C(F)(F)F)n3)ccn2)c1: 182

// next item, melting point requested
Notebook: Nc1ccc(-c2cccc(-c3nc(-c4cccc(C(F)(F)F)c4)cc(C(F)(F)F)n3)c2)cn1 , melting point read as 162

---

melting point of 200 °C or higher: yes (1). Under 200 °C: no (0).

• NS(=O)(=O)c1ccc(-c2nc(-c3nc(-c4ccc(C(F)(F)F)cc4)cc(C(F)(F)F)n3)no2)s1 = yes (1)
• CS(=O)(=O)Nc1cccc(-c2cccc(-c3nc(-c4ccc(C(F)(F)F)cc4)cc(C(F)(F)F)n3)c2)c1 = no (0)
• COCCNS(=O)(=O)c1cccc(-c2cccc(-c3cc(-c4ccc(C(F)(F)F)cc4)cc(C)n3)n2)c1 = no (0)
• NS(=O)(=O)c1cccc(-c2cccc(-c3nc(-c4ccc(F)c(F)c4)cc(C(F)(F)F)n3)c2)c1 = yes (1)

Kindly review the next compound as well.
Query: In plain terms: is recorded melting point at least 200 °C for CC(C)CN(C)S(=O)(=O)c1cccc(-c2cc(-c3nc(-c4ccc(C(F)(F)F)cc4)cc(C(F)(F)F)n3)ccn2)c1 ?
Result: no (0)

---

// values below are reported melting point
Give just the numeric value; °C need not be written.

# count of solved cases: 4
• NS(=O)(=O)c1ccc(-c2cn(-c3nc(-c4cccc(Cl)c4)cc(C(F)(F)F)n3)cn2)s1 = 280
• Cc1cc(-c2cc(C(F)(F)F)nc(-c3cccc(-c4cnc(N)nc4)c3)n2)ccc1C(F)(F)F = 244
• NS(=O)(=O)c1cccc(-c2cccc(-c3nc(-c4ccc(C(F)(F)F)cc4)cc(C(F)F)n3)c2)c1 = 204
• CC(C)c1cc(-c2ccc(C(F)(F)F)cc2)nc(-n2cnc(-c3cnc(N)nc3)c2)n1 = 277

Lab note: Cc1cc(-c2ccc(C(F)(F)F)cc2)cc(-c2cccc(-c3cccc(S(=O)(=O)N4CCC(O)CC4)c3)n2)n1 gave melting point of 195

Consider Nc1ncc(-c2noc(-c3nc(-c4ccc(C(F)(F)F)cc4)cc(C(F)(F)F)n3)n2)cn1 . Its measured melting point is 216

What the record says about FC(F)(F)c1cc(-c2ccc(Cl)cc2)nc(-c2cccc(-c3cccnc3)c2)n1 : melting point is 162

Just so you know, measured melting point for Cc1cc(-c2ccc(Cl)cc2)nc(-c2ccnc(-c3ccc(N)nc3)c2)n1 came out at 199

GET /value?item= Cc1cc(-c2ccc(Cl)c(Cl)c2)nc(-n2cnc(-c3cccc(S(N)(=O)=O)c3)c2)n1 &field=melting point returns 210

get_value(item= CS(=O)(=O)c1cccc(-c2cn(-c3nc(-c4ccc(C(F)(F)F)cc4)cc(C(F)(F)F)n3)cn2)c1 , readout=melting point) returns 231

According to the records, this compound Cc1cc(-c2ccc(Cl)c(Cl)c2)nc(-c2ccnc(-c3ccc(N)nc3)c2)n1 displays melting point of 205

The measurements presented in this section are drawn from patent US8183262B2.
